# assayText: Cytotoxicity against MDCK cells after 72 hrs by MTT assay
# Type: cell-based, Canis lupus familiaris
# experimentalSetup: dog, MDCK cells; read-out: TC50
Just a reminder that ties go to rule not met: only CC50 at 72 h strictly below 700 µg/mL counts as rule met.

Identify whether the compound C=C1CC[C@@H]2[C@](C)(CO)[C@H](O)CC[C@@]2(C)[C@@H]1CC(C1=CCOC1=O)S(=O)(=O)[O-].[Na+] (stereo not given in full) records CC50 at 72 h below 700 µg/mL. rule not met

Identify whether the compound C[C@]1(CO)C2CC=C(CO)[C@@H](CCC3=CCOC3=O)[C@]2(C)CC[C@H]1O (single isomer, unassigned) records CC50 at 72 h below 700 µg/mL. rule met

Identify whether the compound `C[C@]1(CO)[C@H]2CC=C(Cn3cccn3)[C@@H](CCC3=CCOC3=O)[C@]2(C)CC[C@H]1O` records CC50 at 72 h below 700 µg/mL. rule met

Identify whether the compound C[C@@]12CC[C@@H](O)[C@@](C)(CO)C1CCC(CO)=C2CCC1=CCOC1=O (single isomer, unassigned) records CC50 at 72 h below 700 µg/mL. rule met

Identify whether the compound NC(=O)c1ncn([C@@H]2O[C@H](CO)[C@@H](O)[C@H]2O)n1 [RIBAVIRIN] records CC50 at 72 h below 700 µg/mL. rule not met

Identify whether the compound `C[C@]1(CO)[C@H]2CC=C(Cn3ccc(N)nc3=O)[C@@H](CCC3=CCOC3=O)[C@]2(C)CC[C@H]1O` records CC50 at 72 h below 700 µg/mL. rule met

Identify whether the compound `C[C@]1(CO)[C@H]2CC=C(CNC34CC5CC(CC(C5)C3)C4)[C@@H](CCC3=CCOC3=O)[C@]2(C)CC[C@H]1O` records CC50 at 72 h below 700 µg/mL. rule not met

Identify whether the compound `C[C@]1(CO)[C@H]2CC=C(Cn3ccnc3)[C@@H](CCC3=CCOC3=O)[C@]2(C)CC[C@H]1O` records CC50 at 72 h below 700 µg/mL. rule met

----------
# assayText: Cytotoxicity against MDCK cells after 72 hrs by MTT assay
# Type: cell-based, Canis lupus familiaris
# experimentalSetup: dog, MDCK cells; read-out: TC50
Assign CC50 at 72 h to each entry below.
Unit µg/mL implied. Number only.

For the molecule shown here, `C[C@]1(CO)[C@H]2CC=C(Cn3cnc4ncnc(N)c43)[C@@H](CCC3=CCOC3=O)[C@]2(C)CC[C@H]1O` , give the reported CC50 at 72 h. 524

For the molecule shown here, `C[C@]1(CO)[C@H]2CC=C(CNCc3ccccc3)[C@@H](CCC3=CCOC3=O)[C@]2(C)CC[C@H]1O` , give the reported CC50 at 72 h. 965
